Reference source for all entries: paper PMC8458281

biological target: T1, CXCR4 D97Q (human, UniProt P61073-1 1-352, D97Q); experiment: flow cytometry on cells; 12G5 antibody competition on 293T cells transiently transfected with CXCR4 wt or mutants (IRES-eGFP vector), eGFP-positive cells gated; serially diluted peptide with a constant concentration of CXCR4 antibody clone 12G5, 2 h; bound antibody read; IC50 by nonlinear regression; conditions: one partner purified
T1 construct: human CXCR4, isoform 1 or b; source: 293T cells, transiently transfected (pcDNA3.1 CXCR4-IRES-eGFP), on cells
T1 sequence (P61073 whole entry D97Q, canonical isoform): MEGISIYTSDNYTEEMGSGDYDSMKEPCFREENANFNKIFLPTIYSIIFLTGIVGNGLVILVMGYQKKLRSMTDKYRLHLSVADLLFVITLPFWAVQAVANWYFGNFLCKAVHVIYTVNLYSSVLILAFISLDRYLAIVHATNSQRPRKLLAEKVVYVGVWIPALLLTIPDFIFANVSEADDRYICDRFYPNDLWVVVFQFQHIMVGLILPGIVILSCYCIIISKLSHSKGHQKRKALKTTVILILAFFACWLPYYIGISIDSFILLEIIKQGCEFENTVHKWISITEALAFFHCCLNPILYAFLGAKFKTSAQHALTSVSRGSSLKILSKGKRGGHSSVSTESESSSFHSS
pIC50: −log10 of the molar value.
measured.parameter: pIC50

Challenge: Any idea what pIC50 was measured for LVRYTKKVPQVSTPTL (source: synthetic peptide (Fmoc solid-phase synthesis, HPLC-purified)) [EPI-X4 (Alb408-423)] ?
Response given: < 3.00
